Origin of values: patent US20220372013A2

Tested on: DNBS-Induced Inflammatory Bowel Disease Models in Rats
Experiment: Biological Example 3: DNBS-induced inflammatory bowel disease models in rats
Assay type: in vivo, Wistar rats
Conditions: Day 1; 30 mg/Kg i.g. qd × 7; Mean ± SD
measurement-type: Body weight (g)
Expressed in g, but write only the number.

{"columns": ["molecule", "unit", "Body weight"],
 "data": [
  ["COCCCCN1C(=O)CCC(N2C(=O)c3cccc(N)c3C2=O)C1=O (stereo not shown)", "g", 137.0],
  ["COCCN1C(=O)CCC(N2C(=O)c3ccc(N)cc3C2=O)C1=O (stereo not shown)", "g", 136.7],
  ["COCCN1C(=O)CCC(N2C(=O)c3cccc(F)c3C2=O)C1=O (stereo not shown)", "g", 136.2],
  ["Nc1cccc2c1C(=O)N(C1CCC(=O)N(CCO)C1=O)C2=O (stereo not shown)", "g", 138.1],
  ["COCCN1C(=O)CCC(N2C(=O)c3cccc(N)c3C2=O)C1=O (stereo not shown)", "g", 135.2],
  ["COCCCN1C(=O)CCC(N2C(=O)c3cccc(NC(C)=O)c3C2=O)C1=O (stereo not shown)", "g", 135.9]
]}

QUERY: Can you share its Body weight? I mean this molecule: COCCN1C(=O)CCC(N2C(=O)c3ccc(F)cc3C2=O)C1=O (stereo not shown)
RESULT: 134.4

====

# reported Daily Body Weight; entries follow
Tested on: mice
Test: Biological Example 5: acute toxicity experiment of single oral administration in mice
Format: in vivo
Conditions: Female mice; Day 5; single oral 1000 mg/Kg; Mean ± SD

// known answers, use as guide
{"columns": ["molecule", "target-system", "measurement-type", "result"],
 "data": [
  ["COCCCCN1C(=O)CCC(N2C(=O)c3cccc(N)c3C2=O)C1=O (centres unmarked)", "mice", "Daily Body Weight", "25.0 ± 0.4 g"],
  ["C[S+]([O-])CCN1C(=O)CCC(N2C(=O)c3cccc(N)c3C2=O)C1=O (centres unmarked)", "mice", "Daily Body Weight", "23.7 ± 0.6 g"],
  ["COCCCN1C(=O)CCC(N2C(=O)c3cccc(F)c3C2=O)C1=O (centres unmarked)", "mice", "Daily Body Weight", "23.0 ± 0.4 g"],
  ["COCCN1C(=O)CCC(N2C(=O)c3ccc(O)c(N)c3C2=O)C1=O (centres unmarked)", "mice", "Daily Body Weight", "25.3 ± 1.4 g"]
]}

Now for a further molecule.
QUERY: Can you share its Daily Body Weight? I mean this molecule: COCCN1C(=O)CCC(N2C(=O)c3cccc(O)c3C2=O)C1=O (centres unmarked)
RESULT: 24.6 ± 0.4 g

====

Test system: mice
Test: Biological Example 5: acute toxicity experiment of single oral administration in mice
Format: in vivo
Settings: Female mice; Day 2; single oral 1000 mg/Kg; Mean ± SD
measurement-type: Daily Body Weight (g)
Expressed in g, but write only the number.

// known answers, use as guide
{"columns": ["compound", "unit", "Daily Body Weight"],
 "data": [
  ["COCCN1C(=O)CCC(N2C(=O)c3cccc(C)c3C2=O)C1=O (centres unmarked)", "g", 22.4],
  ["CNc1cccc2c1C(=O)N(C1CCC(=O)N(CCOC)C1=O)C2=O (centres unmarked)", "g", 22.7],
  ["CCOCCN1C(=O)CCC(N2C(=O)c3cccc(F)c3C2=O)C1=O (centres unmarked)", "g", 21.6]
]}

QUERY: Can you share its Daily Body Weight? I mean this compound: CS(=O)(=O)CCN1C(=O)CCC(N2C(=O)c3cccc(N)c3C2=O)C1=O (centres unmarked)
RESULT: 21.3

QUERY: Can you share its Daily Body Weight? I mean this compound: COCCCCN1C(=O)CCC(N2C(=O)c3cccc(N)c3C2=O)C1=O (centres unmarked)
RESULT: 21.8
